test.protocol: folding stability dG unfold from chymotrypsin proteolysis; higher = more stable
assay.endpoint: folding stability dG unfold

{"sequence": "SKKKKKKKKKKVIIKIKKDGKEIYIEMTVEEIKELLKKGVKKIEIYSPSEEEKEKIKKLLEEEGVEVEEVSA [r9_810_TrROS_Hall]", "folding stability dG unfold": "1.71 kcal/mol"}
{"sequence": "SAVINIEAWFPPGKSVEEAVDEAKNIIHQFGFEIDDVDVERDPNGWVRVDFTIKIKPPMPPEQRKKLQDSAG [r14_110_TrROS]", "folding stability dG unfold": "2.91 kcal/mol"}

State recorded folding stability dG unfold for all listed sequences.
1. SAGGKPKPGQEVEMKMIMLMVTKPGEITIMRMKMEMRVNPDGNVQMDMKMEMVRVPLSKDQAKELLNASAGG [r13_544_TrROS]
2. SAGGMTLTLIVPSKEEAERLAEALRALLPPGAKLEITVEEVTLKEDLPPDLPEVKEKKYLVVTIRLDSAGGS [r16_795_TrROS_Hall]
3. SAGGSTVKTITLEFTRDPSTGAITEAEAEIERLKNDPNWEVTDPTITPLPDGTVKVPAKVKIPSNANLSAGG [r13_428_JUSTAS]
4. SAGKVKATYDPKTGTLTITFNVKKNEKINVKANIKIPEYNATVEKVETNGAKKDNEPVTVKIKLKNLKKSAG [r5_737_TrMRF]

4.25 kcal/mol
3.5 kcal/mol
0.12 kcal/mol
2.75 kcal/mol

Which folding stability dG unfold value belongs to SAGGSAGGSADIGDPSKIKPKPLHFSFPVKIKLSFEYNGPDGVKKTFSLELTFTVVDKGLGSAGGSAGGSAG [r3_380_TrMRF] ? 4.14 kcal/mol

====

test.protocol: folding stability dG unfold (combined trypsin and chymotrypsin); higher = more stable
Hi there, I'd appreciate the recorded folding stability dG unfold for every entry that follows.
Numbers only, in kcal/mol.

{"sequence": "SAGGSAGGSAPLRFEFELPGNYRVRIELEPVPDDPSAGPRYRLRIEVFDLETGEVLPFEIDGSAGGSAGGSA [r18_66_TrMRF]", "folding stability dG unfold (kcal/mol)": 3.74}
{"sequence": "SAGGAEELAKRLAEELREAGYEVEVVKVERLENGEVVITMKVRVVKDGKEVEEREIKLVLKLPEELLSAGGS [r8_102_TrROS_Hall]", "folding stability dG unfold (kcal/mol)": 3.98}

Now take the following sequence into account.
Which folding stability dG unfold value belongs to SAGGSAGMVLVRTPDGEVLLLPFTSPEEAEEALERLTGGRLVSVRLEGTPGDRLLLVAEVERPPGGSAGGSA [r15_447_TrMRF] ? 2.06

====

test.protocol: folding stability dG unfold from chymotrypsin proteolysis; higher = more stable
Rule: 1.0 for folding stability dG unfold not less than 2 kcal/mol, 0.0 for anything less.

Reference set (6 entries):
{"sequence": "SAGGSAGGSTLTVEIQITDADGNTLTAKVTLTFEPAPPPPPPPTVERRTTTVDGKTVTEYRRLSAGGSAGGS [r12_128_TrROS_Hall]", "category.label": 0.0}
{"sequence": "SAGGSAVVVTTDPNGTLTVYADNKVVKVKVIPLPRPDPLTGSTSTLLLVEVEVSPLKPDPLPPEFPSAGGSA [r15_515_TrMRF]", "category.label": 1.0}
{"sequence": "SAGGSAGGSAGSMSLPVTELVVESVDPLEGVLVVKVKGTLPDGSEVELTLEFKPDEPLELSAGGSAGGSAGG [r11_211_JUSTAS]", "category.label": 0.0}
{"sequence": "SMEIVFKGKNYYVPVKIDLDNPKITIETYPDKRNKVFKPLSKETAEKIAKAVEIEVAEKIAKAIAEGKPPSA [r9_368_TrMRF]", "category.label": 0.0}
{"sequence": "SAGEVKIEISVEKVGGKYIVRIKVTVDGKEYEYEFPAGKSVEELAKELEKKLNLKVKKIEVEVRKLPPKSAG [r5_181_TrROS_Hall]", "category.label": 1.0}
{"sequence": "SAGGSAGGSAGGGIYEVDENGNPLPPRPYLVLKIGYEVGYLPDGGAGLSLNIEIYPVYDASAGGSAGGSAGG [r7_572_TrMRF]", "category.label": 1.0}

Would you kindly look at the next entry?
Can SAGGSAGGSAGPKILSIEEYDPENGYITVIAELTGKPVRMKVKFIPGKKEIKIIEIEPLDSAGGSAGGSAGG [r11_1066_TrMRF] be said to have folding stability dG unfold at or above 2 kcal/mol? 1.0
